test-method-notes: NCI Yeast Anticancer Drug Screen. Data for the cln2 rad14 strain (AID 165);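 note: 0% = growth equal to vehicle treated cultures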
experimental-parameters: S. cerevisiae cln2 rad14 strain, at 50.0 µM, stronger effect = higher value
About 79,000 compounds went through this panel and 15% of them were active in at least one assay; those are over-represented in the sample as a whole. Active and inactive are the calls of the source. Cut-off read from the data, not from the text of the source: active = growth inhibition above about 70%; inactive = the rest.
measure: growth inhibition

Below, each entry is followed by its recorded growth inhibition result.
>  <compound>
[Cl][Sn]([Cl])([c]1ccccc1)[c]1ccccc1.c1ccc2nc(-c3ccc4ccccc4n3)ccc2c1

>  <measure>
growth inhibition

>  <result>
45.1% (inactive)

$$$$
>  <compound>
NC[CH2][Sn]([c]1ccccc1)([CH]1CCCCC1)[CH]1CCCCC1

>  <measure>
growth inhibition

>  <result>
97.5% (active)

$$$$
>  <compound>
CC(C)CCCC(C)[C@H]1CCC2[C@@H]3CCC4Cc5nc6c(nc5C[C@]4(C)C3CC[C@@]21C)CC1CC[C@@H]2C(CC[C@@]3(C)C2CC[C@@H]3O)[C@@]1(C)C6 (stereo partly specified)

>  <measure>
growth inhibition

>  <result>
-7.9% (inactive)

$$$$
>  <compound>
[C-]#[O+].[C-]#[O+].[C-]#[O+].[C-]#[O+].[W].c1ccc([PH+](CC[PH+](c2ccccc2)c2ccccc2)c2ccccc2)cc1

>  <measure>
growth inhibition

>  <result>
-8% (inactive)

$$$$
>  <compound>
CN1CCC2CCCCN2CC1=O (stereo unspecified)

>  <measure>
growth inhibition

>  <result>
-4.35% (inactive)

$$$$

Quick note, growth inhibition for CC(C)CC1N=C(N(C)N=O)OP1(=O)NNc1ncccn1 (stereo unspecified) landed at 6.65% (inactive)

---

Below, each entry is listed alongside its reported growth inhibition.
test-method-notes: NCI Yeast Anticancer Drug Screen. Data for the rad50 strain (AID 155);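 note: 0% = growth of vehicle-only cultures of the same strain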
experimental-parameters: S. cerevisiae rad50 strain growth inhibition; at 50.0 µM; stronger effect = higher value
About 79,000 compounds went through this panel and 15% of them were active in at least one assay; those are over-represented in the sample as a whole.
Record the value in %, omitting the unit from your answer.

The reported growth inhibition of the compound "CCN(CCCl)c1ccc(NC(=O)c2cc(C(=O)NCCN(C)C)cc(C(=O)Nc3ccc(N(CC)CCCl)cc3)c2)cc1" was 35

Recorded result, "CCC[CH2][Sn]1([CH2]CCC)[O]C(=O)CN=C(C)c2ccccc2[O]1" , growth inhibition: 0.1

Per the record, "N#CS.N=C=S.N=C=S.[Cu+2].[NH2-].[NH2-].[NH2-].[NH2-].c1ccc2ncccc2c1" has growth inhibition of -10.4

Form field growth inhibition, entry "CC1=C(C)C(=O)C(C)=C(C)C1=O" : 25.2

Lab book: growth inhibition of "Oc1c(Cl)cc(Cl)cc1C1N(Cc2ccc(N(CCCl)CCCl)cc2)CCCN1Cc1ccc(N(CCCl)CCCl)cc1" noted as 8.75

---

test-method-notes: NCI Yeast Anticancer Drug Screen. Data for the sgs1 mgt1 strain (AID 161);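 note: 0% = growth of cultures given vehicle only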
experimental-parameters: S. cerevisiae sgs1 mgt1 strain, at 50.0 µM (retest, dose inferred, filed as 5.0), stronger effect = higher value
About 79,000 compounds went through this panel and 15% of them were active in at least one assay; those are over-represented in the sample as a whole. Active and inactive are the calls of the source. Rule as the data show it: active = growth inhibition above about 70%; inactive = the rest.
compounds and their reported growth inhibition

>  <compound>
CN(C)CCBr

>  <growth inhibition>
94% (active)

$$$$
>  <compound>
Cc1cc(N(CCCl)CCCl)ccc1C1N(Cc2ccc(Cl)cc2Cl)CCCN1Cc1ccc(Cl)cc1Cl

>  <growth inhibition>
91% (active)

$$$$
>  <compound>
CC1(C)N=C(N)N=C(N)N1c1ccc(OCCCCNC(=O)Nc2ccc(S(=O)(=O)F)cc2)c(Cl)c1

>  <growth inhibition>
98% (active)

$$$$
>  <compound>
CC(CCC/C=C/CCCN(C)C(=N)N)CC(C)C1OC(=O)C(C)C(O)/C=C/C(C)C(O)C(C)C(O)C(C)C(O)CCCC(O)CC2(O)OC(CC(OC(=O)CC(=O)O)CC(O)CC(O)C(C)C(O)/C=C/C=C/C1C)CC(O)C2O (stereo not given)

>  <growth inhibition>
99% (active)

$$$$
>  <compound>
CNP(=O)(Oc1cc(Cl)c(Cl)cc1Cl)N1CCN(c2ccccc2)CC1 (stereo not given)

>  <growth inhibition>
72% (active)

$$$$
>  <compound>
CC(=O)Nc1c2sscc-2n(C)c1=O

>  <growth inhibition>
99% (active)

$$$$
>  <compound>
COC(=O)C1c2c(C)cc3n2C(C=CC3)C1C(=O)OC (stereo not given)

>  <growth inhibition>
24% (inactive)

$$$$
>  <compound>
S=c1sc(-c2ccccc2)c[se]1

>  <growth inhibition>
34% (inactive)

$$$$

Form: compound = C/C(=N\NC(N)=O)C(CN1CCCCC1)C(c1ccccc1)c1c(O)c2ccccc2oc1=O (stereo not given) ; growth inhibition = 6% (inactive)

So, O=C([O][Hg][CH2]C1COC([CH2][Hg][O]C(=O)c2ccccc2)CO1)c1ccccc1 (stereo not given) ? Its growth inhibition was 99% (active)

Query "Nc1c([N+](=O)[O-])cc(Cl)cc1[N+](=O)[O-]" yields growth inhibition of 98% (active)

Recorded result, CC(C)NC1CC2CCCCC2CC1c1ccccc1 (stereo not given) , growth inhibition: 68% (inactive)

---

test-method-notes: NCI Yeast Anticancer Drug Screen. Data for the bub3 strain (AID 167)
experimental-parameters: S. cerevisiae bub3 mutant strain, at 50.0 µM, stronger effect = higher value
The panel holds about 79,000 compounds, 15% with a hit somewhere; the sample as a whole holds those more often.
measure: growth inhibition (%)
# value in %; strip the unit string

// solved cases for growth inhibition follow
>  <structure-smiles>
O=C(CBr)OC1CCCCC1

>  <measure>
growth inhibition

>  <readout-number>
75.8

$$$$
>  <structure-smiles>
C=CCc1cc(C=C(C#N)C#N)cc(OC)c1O

>  <measure>
growth inhibition

>  <readout-number>
9.05

$$$$
>  <structure-smiles>
O=C(N/N=C/c1cc(Br)cc(Br)c1[O-])c1ccccc1O.O=C(N/N=C/c1cc(Br)cc(Br)c1[O-])c1ccccc1O.[Mn+2]

>  <measure>
growth inhibition

>  <readout-number>
96

$$$$
>  <structure-smiles>
CCC[CH2][Sn]1([CH2]CCC)[O]C(=O)c2cccc(OC)c2[O]1

>  <measure>
growth inhibition

>  <readout-number>
98.4

$$$$
>  <structure-smiles>
O=C1NC(=O)C(=C2C(=O)COC2=O)C(=O)N1

>  <measure>
growth inhibition

>  <readout-number>
-2.8

$$$$

Let us move to another entry and its growth inhibition.
Looking up "C=CCc1cc(Cl)ccc1OC(=O)N(C)C" , I see its growth inhibition listed as -11.8

---

test-method-notes: NCI Yeast Anticancer Drug Screen. Data for the bub3 strain (AID 167)
experimental-parameters: S. cerevisiae bub3 mutant strain, at 50.0 µM (retest, dose inferred, filed as 5.0)
The panel holds about 79,000 compounds, 15% with a hit somewhere; the sample as a whole holds those more often. Active and inactive are the calls of the source. Rule as the data show it: active = growth inhibition above about 70%; inactive = the rest.
Respond only with the outcome that fits, drawn from class 1 = active, class 0 = inactive

Input: Which outcome did this test record for the compound "[Cl][Hg][c]1ccco1" ?
Output: class 1

Input: So what was the verdict on "CN(C)C(=S)Nc1nnc(NC23CC4CC(CC(C4)C2)C3)s1" in this test?
Output: class 1

Input: Record lookup: outcome of this test for "COC1(O[C@H]2CC[C@H]3[C@@H]4CCC5=CC(=O)CC[C@]5(C)[C@H]4CC[C@]23C)CCCCC1" ?
Output: class 0

Input: Record lookup: outcome of this test for "N=C(N)c1ccc(NN=Nc2cccc3c2Oc2ccccc2O3)cc1" ?
Output: class 1

Input: Answer briefly: the call reported for "CCCC1CC[N-]CC1.CCCC1CC[N-]CC1.N#C[S-].N#C[S-].[Cd]" in this assay.
Output: class 0

Input: Check the results log: what was the call for CC12CCC3C(CCC4Cc5nc6nnnn6cc5CC43C)C1CCC2O (stereo unspecified) ?
Output: class 0

---

test-method-notes: NCI Yeast Anticancer Drug Screen. Data for the mec2-1 strain (AID 157)
experimental-parameters: S. cerevisiae mec2-1 strain, at 5.0 µM (retest, dose inferred, filed as 0.5)
The panel holds about 79,000 compounds, 15% with a hit somewhere; the sample as a whole holds those more often. Calls of active or inactive are those of the source. Rule as the data show it: active = growth inhibition above about 70%; inactive = the rest.
Give one outcome, nothing more. List: true = active, false = inactive

>  <compound>
C(#C[PH+](c1ccccc1)c1ccccc1)c1ccccc1.C(#C[PH+](c1ccccc1)c1ccccc1)c1ccccc1.C(#C[PH+](c1ccccc1)c1ccccc1)c1ccccc1.[C-]#[O+].[C-]#[O+].[C-]#[O+].[Cr]

>  <answer-label>
false

$$$$
>  <compound>
c1ccc([As+](c2ccccc2)(c2ccccc2)c2cccc3ccccc23)cc1

>  <answer-label>
true

$$$$
>  <compound>
C[AsH](C)CC[AsH](C)C.C[AsH](C)CC[AsH](C)C.C[AsH](C)CC[AsH](C)C.[Ni]

>  <answer-label>
false

$$$$
>  <compound>
O=Cc1ccccc1O.O=Cc1ccccc1O.[O]=[Mo]=[O]

>  <answer-label>
false

$$$$
>  <compound>
O=P(Oc1ccccc1)(Oc1ccccc1)Oc1ccccc1Cl

>  <answer-label>
false

$$$$

Input: Identify the outcome logged in this assay for the compound shown: CC(=O)O[C@H]1CCC2[C@@H]3CCC4Nc5oncc5C[C@]4(C)C3CC[C@@]21C (some centres not stated)
Output: false

Input: Called result for "[Cl][Hg][c]1ccco1"
Output: true

Input: Status in this test for "O=[N+]([O-])/C=C/c1ccc(Cl)cc1" ?
Output: false

Input: Status in this test for CC1=C[C@H]2O[C@H]3C[C@H]4OC(=O)/C=C\C=C\C(=O)OCC[C@@H](C)C(O)C(=O)OC[C@@]2(CC1)[C@@]4(C)[C@]31CO1 (some centres not stated) ?
Output: true

Input: State the result this test recorded for "O=c1s[se]c2ccccc12" .
Output: false

Input: Test call, this compound: C/C=C(\C)C(=O)OC1CC(C)(C)CC2C3=CCC4C5(C)CCC(=O)C(C)(C)C5CCC4(C)C3(C)CCC12C(=O)O (configuration not stated) (tested in a mixture with another compound)
Output: false

Input: For this compound, state the assay outcome: c1cc2n[pH]nc2cn1 (configuration not stated)
Output: false

Input: For this compound, state the assay outcome: "O=[N+]([O-])c1cc(Cl)ccc1S(=O)(=O)F"
Output: true

Input: Fill in: this test's call for CCCCCCCCN1CCN(CCCCCCCC)C2CCCCC21 (configuration not stated) (tested in a mixture with another compound) is ___
Output: false

Input: In this assay, the call recorded for COc1cc(C(CC(=O)N(CCCl)CCCl)c2ccc3c(c2)OCO3)cc(OC)c1OC (configuration not stated) was what?
Output: false

Input: Identify the outcome logged in this assay for the compound shown: "O=[N+]([O-])/C=C/c1cccc(F)c1"
Output: false

Input: Short answer needed: outcome of this test for "S=C=NC/C(Cl)=C/Cl" ?
Output: false
